# runConditions: % Viability non-Wnt responsive cells
Where a SMILES comes first, the peptide text is derived from it.
Parameter: viability. Scope: all listed entries.
The reply should be a number in %, with the unit left off.

CC[C@H](C)[C@H](NC(=O)[C@H](CC(C)C)NC(=O)[C@H](Cc1ccccc1)NC(=O)[C@H](Cc1c[nH]c2ccccc12)NC(=O)[C@@H](N)CCSC)C(=O)N[C@@H](CS)C(=O)N[C@@H](Cc1c[nH]cn1)C(=O)N[C@@H](Cc1c[nH]c2ccccc12)C(=O)NCC(=O)O [compound 145] (H-MWFLICHWG-OH) = 107

Kindly consider the entry below.
Any idea what viability was measured for CC[C@H](C)[C@@H]1NC(=O)[C@H](CC(C)C)NC(=O)[C@H](Cc2ccccc2)NC(=O)[C@H](Cc2c[nH]c3ccccc23)NC(=O)[C@@H](N)CCCCNC(=O)C[C@@H](C(=O)O)NC(=O)[C@H](Cc2c[nH]c3ccccc23)NC(=O)[C@H](C)NC(=O)[C@H](CO)NC1=O [compound 202] (HELM PEPTIDE1{K.W.F.L.I.S.A.W.D}$PEPTIDE1,PEPTIDE1,1:R3-9:R3$$$V2.0) ?
92.1

---

# testedOn: β-catenin (Homo sapiens)
# assayInfo: KD50 measurement using competitive fluorescence polarization (FP) with labelled TCF4
# Assay type: binding
# runConditions: fluorescence polarization, β-catenin
Where a SMILES comes first, the peptide text is derived from it.
measurementKind: β-Cat FP Hill slope
Form: value (number only, do not type unit).

CCCC[C@@H]1NC(=O)[C@@H](NC(C)=O)CCCCNC(=O)C[C@@H](C(=O)O)NC(=O)[C@H](Cc2c[nH]c3ccccc23)NC(=O)[C@H](C)NC(=O)[C@H](CC)NC(=O)[C@H]([C@@H](C)CC)NC(=O)[C@H](CC(C)C)NC(=O)[C@H](CC2CCCCC2)NC(=O)[C@H](Cc2c[nH]c3ccccc23)NC1=O [compound 215] (HELM PEPTIDE1{[ac].K.[Nle].W.[Cha].L.I.[Abu].A.W.D}$PEPTIDE1,PEPTIDE1,2:R3-11:R3$$$V2.0) = 1.69
CC[C@H](C)[C@H](NC(=O)[C@H](CC(C)C)NC(=O)[C@@H](NC(=O)[C@H](Cc1c[nH]c2ccccc12)NC(=O)[C@@H](N)CCSC)[C@@H](C)CC)C(=O)N[C@@H](CO)C(=O)N[C@@H](Cc1ccccc1)C(=O)N[C@@H](Cc1c[nH]c2ccccc12)C(=O)NCC(=O)O [compound 43] (H-MWILISFWG-OH) = 0.92

Kindly consider the entry below.
Any idea what β-Cat FP Hill slope was measured for CC[C@H](C)[C@H](NC(=O)[C@H](CC(C)C)NC(=O)[C@H](Cc1ccccc1)NC(=O)[C@@H](N)Cc1c[nH]c2ccccc12)C(=O)N[C@@H](CO)C(=O)N[C@@H](Cc1ccc(O)cc1)C(=O)N[C@@H](Cc1c[nH]c2ccccc12)C(=O)O [compound 109] (H-WFLISYW-OH) ?
3

---

# testedOn: β-catenin (Homo sapiens)
# assayInfo: KD50 measurement using competitive fluorescence polarization (FP) with labelled TCF4
# Type: binding
# runConditions: fluorescence polarization, β-catenin; read-out: β-Cat FP KD
Where a SMILES comes first, the peptide text is derived from it.
Parameter: Kd. Scope: all listed entries.

CC[C@H](C)[C@H](NC(=O)[C@H](CC(C)C)NC(=O)[C@H](Cc1ccccc1)NC(=O)[C@H](Cc1c[nH]c2ccccc12)NC(C)=O)C(=O)N[C@@H](CO)C(=O)N[C@@H](Cc1ccccc1)C(=O)N[C@@H](Cc1c[nH]c2ccccc12)C(=O)NCC(=O)O [compound 220] (Ac-WFLISFWG-OH) = 400 to 1000 nM
CC[C@H](C)[C@H](NC(=O)[C@H](CC(C)C)NC(=O)[C@H](Cc1ccccc1)NC(=O)[C@H](Cc1c[nH]c2ccccc12)NC(=O)[C@@H](N)CCSC)C(=O)N[C@@H](CO)C(=O)N[C@@H](Cc1ccccc1)C(=O)N[C@@H](Cc1c[nH]c2ccccc12)C(=O)N(C)[C@@H](C)C(=O)NCC(=O)O [compound 45] (HELM PEPTIDE1{M.W.F.L.I.S.F.W.[meA].G}$$$$V2.0) = 400 to 1000 nM

Kindly consider the entry below.
Any idea what Kd was measured for CC[C@H](C)[C@@H]1NC(=O)[C@H](CC(C)C)NC(=O)[C@H](Cc2ccccc2)NC(=O)[C@H](Cc2c[nH]c3ccccc23)NC(=O)[C@@H](N)CCCCNC(=O)CC[C@@H](C(=O)N[C@@H](Cc2c[nH]c3ccccc23)C(=O)NCC(=O)O)NC(=O)[C@H](CO)NC1=O [compound 228] (HELM PEPTIDE1{K.W.F.L.I.S.E.W.G}$PEPTIDE1,PEPTIDE1,1:R3-7:R3$$$V2.0) ?
> 30000 nM

---

# runConditions: % Viability non-Wnt responsive cells
Where a SMILES comes first, the peptide text is derived from it.
Parameter: viability. Scope: all listed entries.
The reply should be a number in %, with the unit left off.

Sample records with viability:
CC[C@H](C)[C@H](NC(=O)[C@H](CC(C)C)NC(=O)[C@H](Cc1ccccc1)NC(=O)[C@H](Cc1c[nH]c2ccccc12)NC(=O)[C@@H](N)CCSC)C(=O)N[C@@H](CCC(N)=O)C(=O)N[C@@H](Cc1ccccc1)C(=O)N[C@@H](Cc1ccc(O)cc1)C(=O)NCC(=O)O [compound 149] (H-MWFLIQFYG-OH) = 104
CC[C@H](C)[C@H](NC(=O)[C@H](CC(C)C)NC(=O)[C@H](Cc1ccccc1)NC(=O)[C@H](Cc1c[nH]c2ccccc12)NC(=O)[C@H](CCSC)NC(=O)[C@H](CCCNC(=N)N)NC(=O)[C@H](CO)NC(=O)[C@@H](N)CCCCN)C(=O)N[C@@H](CO)C(=O)N[C@@H](Cc1ccccc1)C(=O)N[C@@H](Cc1c[nH]c2ccccc12)C(N)=O [compound 83] (H-KSRMWFLISFW-NH2) = 90.9

Kindly consider the entry below.
Any idea what viability was measured for CC[C@H](C)[C@@H]1NC(=O)[C@H](CC(C)C)NC(=O)[C@H](Cc2ccccc2)NC(=O)[C@H](Cc2c[nH]c3ccccc23)NC(=O)[C@H](CCSC)NC(=O)[C@@H](N)CCCCNC(=O)CC[C@@H](C(=O)N[C@@H](Cc2c[nH]c3ccccc23)C(=O)NCC(=O)O)NC(=O)[C@H](CS)NC1=O [compound 180] (HELM PEPTIDE1{K.M.W.F.L.I.C.E.W.G}$PEPTIDE1,PEPTIDE1,1:R3-8:R3$$$V2.0) ?
103

---

Parameter: pEC50. Scope: all listed entries.
# testedOn: Wnt-responsive promoter (TCF/LEF)
# assayInfo: Wnt-dependent luciferase reporter assay
pEC50: −log10 of the molar value. Where a SMILES comes first, the peptide text is derived from it.

CC[C@H](C)[C@H](NC(=O)[C@H](CC(C)C)NC(=O)[C@H](Cc1ccccc1)NC(=O)[C@H](Cc1c[nH]c2ccccc12)NC(=O)[C@H](CCSC)NC(=O)[C@H](CCCNC(=N)N)NC(=O)[C@H](CO)NC(=O)[C@@H](N)Cc1ccc(O)cc1)C(=O)N[C@@H](CO)C(=O)N[C@@H](Cc1ccccc1)C(=O)N[C@@H](Cc1c[nH]c2ccccc12)C(N)=O [compound 82] (H-YSRMWFLISFW-NH2) = < 4.52

Kindly consider the entry below.
Any idea what pEC50 was measured for CC[C@H](C)[C@H](NC(=O)[C@H](CC(C)C)NC(=O)[C@@H](NC(=O)[C@H](Cc1c[nH]c2ccccc12)NC(=O)[C@H](CCSC)NC(=O)[C@@H](N)CCCNC(=N)N)[C@@H](C)CC)C(=O)N[C@@H](CO)C(=O)N[C@@H](Cc1ccccc1)C(=O)N[C@@H](Cc1c[nH]c2ccccc12)C(=O)NCC(=O)O [compound 124] (H-RMWILISFWG-OH) ?
4.82 to 5.12

---

# testedOn: β-catenin (Homo sapiens)
# Sequence (P35222 1-781): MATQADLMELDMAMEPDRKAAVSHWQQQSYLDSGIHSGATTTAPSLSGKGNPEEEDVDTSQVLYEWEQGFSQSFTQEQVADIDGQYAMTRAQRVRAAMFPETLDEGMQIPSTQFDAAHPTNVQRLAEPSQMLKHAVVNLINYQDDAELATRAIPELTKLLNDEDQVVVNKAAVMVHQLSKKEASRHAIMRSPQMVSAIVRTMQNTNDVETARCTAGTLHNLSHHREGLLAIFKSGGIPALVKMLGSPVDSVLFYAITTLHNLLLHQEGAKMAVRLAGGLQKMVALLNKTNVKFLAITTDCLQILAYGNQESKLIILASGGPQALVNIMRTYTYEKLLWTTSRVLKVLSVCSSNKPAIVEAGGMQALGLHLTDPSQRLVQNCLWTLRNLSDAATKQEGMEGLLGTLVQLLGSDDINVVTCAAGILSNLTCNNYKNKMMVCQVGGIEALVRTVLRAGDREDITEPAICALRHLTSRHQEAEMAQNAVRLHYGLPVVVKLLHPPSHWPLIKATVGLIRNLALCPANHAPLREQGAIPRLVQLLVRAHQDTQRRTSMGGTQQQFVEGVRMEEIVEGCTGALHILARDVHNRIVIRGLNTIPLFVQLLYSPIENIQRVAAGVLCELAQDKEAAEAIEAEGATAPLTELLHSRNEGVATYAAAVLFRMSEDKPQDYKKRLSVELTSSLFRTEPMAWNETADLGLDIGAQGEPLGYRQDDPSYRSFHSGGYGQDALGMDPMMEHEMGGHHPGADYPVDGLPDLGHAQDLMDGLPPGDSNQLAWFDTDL
# assayInfo: KD50 measurement using competitive fluorescence polarization (FP) with labelled TCF4
# Assay type: binding
# runConditions: fluorescence polarization, β-catenin; read-out: β-Cat FP KD
measurementKind: Kd

Any idea what Kd was measured for H-GGGDDLGANDELISFKDEGEQEEKSSENSSAERDLADVKSSLVNEK-NH2 [compound 266] ?
< 0.4 µM

Cited source: patent US12441768B2
